Cited source: the supplement of paper PMC6897291

- Tested on: U-2932
- test_name: growth inhibition by drug alone (1 - RLU/untreated control) (fraction); higher = stronger inhibition
- condition_context: 1000 nM; time (day): 3; 177Lu-lilotomab satetraxetan 0 ug/ml
Structures can show the parent of a compound that is named as a salt.
Tick 1 if growth inhibition by drug alone is 0.1 or greater. Tick -1 if growth inhibition by drug alone is less than 0.1.

>  <compound>
Cc1ccc([C@@H]2O[C@H](CO)[C@@H](O)[C@H](O)[C@H]2O)cc1Cc1ccc(-c2ccc(F)cc2)s1 [Canagliflozin]

>  <system_tested>
U-2932

>  <qualitative_label>
-1

$$$$
>  <compound>
COC(=O)c1ccc2c(C(=Nc3ccc(N(C)C(=O)CN4CCN(C)CC4)cc3)c3ccccc3)c(O)[nH]c2c1 [BIBF1120 (Vargatef)]

>  <system_tested>
U-2932

>  <qualitative_label>
-1

$$$$
>  <compound>
Cn1cnc(N)c2ncnc1-2 [3-Methyladenine]

>  <system_tested>
U-2932

>  <qualitative_label>
-1

$$$$
>  <compound>
CCC[C@H](NC(=O)/C(C#N)=C/c1cccc(Br)n1)c1ccccc1

>  <system_tested>
U-2932

>  <qualitative_label>
-1

$$$$
>  <compound>
O=C(O)C(=O)O.[NH-]C1CCCCC1[NH-].[Pt+2] (centres undefined) [Oxaliplatin (Eloxatin)]

>  <system_tested>
U-2932

>  <qualitative_label>
1

$$$$
>  <compound>
CN1CC[C@H](c2c(O)cc(O)c3c(=O)cc(-c4ccccc4Cl)oc23)[C@H](O)C1 [Flavopiridol hydrochloride]

>  <system_tested>
U-2932

>  <qualitative_label>
1

$$$$
>  <compound>
CN(C)c1ccccc1CN1CCCN(Cc2ccccc2N(C)C)C1c1ccncc1

>  <system_tested>
U-2932

>  <qualitative_label>
-1

$$$$
>  <compound>
Cc1cnc(-c2cnc(NCCNc3ccc(C#N)cn3)nc2-c2ccc(Cl)cc2Cl)[nH]1

>  <system_tested>
U-2932

>  <qualitative_label>
1

$$$$
>  <compound>
CC1(C)CCC(c2ccc(Cl)cc2)=C(CN2CCN(c3ccc(C(=O)NS(=O)(=O)c4ccc(N[C@H](CCN5CCOCC5)CSc5ccccc5)c(S(=O)(=O)C(F)(F)F)c4)cc3)CC2)C1 [ABT-263 (Navitoclax)]

>  <system_tested>
U-2932

>  <qualitative_label>
-1

$$$$
>  <compound>
COCC[n+]1c2c(n(Cc3cnccn3)c1C)C(=O)c1ccccc1C2=O

>  <system_tested>
U-2932

>  <qualitative_label>
1

$$$$
>  <compound>
Nc1cccc2c1C(=O)N(C1CCC(=O)NC1=O)C2=O (centres undefined) [Pomalidomide]

>  <system_tested>
U-2932

>  <qualitative_label>
-1

$$$$
>  <compound>
O=C(CCCCCCC(=O)Nc1cccnc1)NO [Pyroxamide]

>  <system_tested>
U-2932

>  <qualitative_label>
1

$$$$
>  <compound>
Nc1nc(N)c(N=O)c(OCC2CCCCC2)n1

>  <system_tested>
U-2932

>  <qualitative_label>
-1

$$$$
>  <compound>
CCCCCCCCc1ccc(CCC(N)(CO)CO)cc1 [Fingolimod (FTY720)]

>  <system_tested>
U-2932

>  <qualitative_label>
-1

$$$$
>  <compound>
Cc1nc(N)sc1-c1ccnc(Nc2ccc(N3CCOCC3)cc2)n1

>  <system_tested>
U-2932

>  <qualitative_label>
-1

$$$$
>  <compound>
COc1ccc(C2=N[C@@H](c3ccc(Cl)cc3)[C@@H](c3ccc(Cl)cc3)N2C(=O)N2CCNC(=O)C2)c(OC(C)C)c1 [Nutlin-3]

>  <system_tested>
U-2932

>  <qualitative_label>
-1

$$$$
>  <compound>
O=C(Cc1ccc(-c2ccc(OCCN3CCOCC3)cc2)cn1)NCc1ccccc1

>  <system_tested>
U-2932

>  <qualitative_label>
1

$$$$
>  <compound>
CC1(CN2CCC(n3c(=O)[nH]c4ccccc43)CC2)OCc2ccccc2-n2cccc21 (centres undefined)

>  <system_tested>
U-2932

>  <qualitative_label>
-1

$$$$
>  <compound>
CC(=O)O[C@]1(C(C)=O)CC[C@H]2[C@@H]3C[C@H](C)C4=CC(=O)CC[C@]4(C)[C@H]3CC[C@@]21C [Medroxyprogesterone acetate]

>  <system_tested>
U-2932

>  <qualitative_label>
1

$$$$
